Values compiled from PubChem BioAssay (Tox21).

Experiment: qHTS assay to identify small molecule antagonists of the androgen receptor (AR) signaling pathway - cell viability counter screen (AID 743033; further: nearly all actives have a fitted effect of over 45% in size; further: potency means the concentration at half of the fitted maximal effect)
Settings: AR-bla HEK293 viability, CellTiter-Glo luminescence, 16 h; series mostly up to 58.5 µM
Records with an inconclusive call do not appear. Active and inactive are the calls of the source. The call rests on the fitted dose curve; in most records, active means well fitted cell-killing curve with a large enough effect in the repeat runs; inconclusive means weak or mixed curves; inactive means no such curve, though single readings can be large or run the other way.
QUANTITY_NAME: Potency

# example entries with known answers
Data request: Quick one: Potency of CNc1ccc(C(=O)CC(O)CCC(C)C2OC(=O)CC(O)CC(=O)CC(O)CC(O)CC(O)CC(O)CC3(O)CC(O)C(C(=O)OC)C(CC(O[C@@H]4O[C@H](C)[C@@H](O)[C@H](N)[C@@H]4O)/C=C/C=C/C=C/C=C/C=C/C=C/C=C/C2C)O3)cc1 (some centres undefined) ?
Data returned: inactive

Data request: Quick one: Potency of O=C1C[C@@H]2OCC=C3CN4CC[C@]56c7ccccc7N1[C@H]5[C@H]2[C@H]3C[C@H]46 (tested in a mixture with another compound) ?
Data returned: inactive

Data request: Quick one: Potency of C[C@]12N[C@H](Cc3ccccc31)c1ccccc12 ?
Data returned: inactive

Data request: Quick one: Potency of COc1cc(C[C@H](C)N)c(OC)cc1C ?
Data returned: inactive

Data request: Quick one: Potency of CN(C)CCCCCCN(C)C ?
Data returned: inactive

Data request: Quick one: Potency of C=CCC1(C(C)CCC)C(=O)N=C(S)NC1=O (centres undefined) ?
Data returned: inactive

Data request: Quick one: Potency of CNC(C)Cc1ccccc1 (centres undefined) ?
Data returned: inactive

Data request: Quick one: Potency of Clc1ccccc1-c1ccccc1Cl ?
Data returned: inactive

Please supply Potency for each of the following items, keeping them in order.
1. CCN(CC)CCO[C@H]1CC[C@@]2(C)C(=CC[C@@H]3[C@@H]2CC[C@]2(C)C(=O)CC[C@@H]32)C1
2. O=S(=O)(O)c1cc(O)ccc1O
3. O=C1CCCCC1CN1CCCCC1 (centres undefined)
4. CCCN1CCC[C@H](c2cccc(O)c2)C1
5. CC1COC(Cn2cncn2)(c2ccc(Oc3ccc(Cl)cc3)cc2Cl)O1 (centres undefined)
6. N#CC(C#N)=Cc1cc(O)c(O)c(O)c1
7. OC[C@@H](O)[C@H]1O[C@@H]2O[C@@H](C(Cl)(Cl)Cl)O[C@@H]2[C@H]1O

Data returned:
["inactive", "inactive", "inactive", "inactive", "21.9 µM (active)", "inactive", "inactive"]

Please supply Potency for each of the following items, keeping them in order.
1. C[C@H]1CC[C@]2(NC1)O[C@H]1C[C@H]3[C@@H]4CC[C@H]5C[C@@H](O[C@@H]6O[C@H](CO)[C@H](O[C@@H]7O[C@H](CO)[C@@H](O)[C@H](O[C@@H]8OC[C@@H](O)[C@H](O)[C@H]8O)[C@H]7O[C@@H]7O[C@H](CO)[C@@H](O)[C@H](O)[C@H]7O)[C@H](O)[C@H]6O)CC[C@]5(C)[C@H]4CC[C@]3(C)[C@H]1[C@@H]2C
2. CN(C)[C@H](Cc1ccccc1)c1ccccc1

Data returned:
["4.77 µM (active)", "inactive"]

Please supply Potency for each of the following items, keeping them in order.
1. O=P1(N(CCCl)CCCl)NC(OO)CCO1 (centres undefined)
2. OCC(c1ccc(Cl)cc1)c1ccc(Cl)cc1

Data returned:
inactive
43.6 µM (active)

====

Test: qHTS assay to identify small molecule agonists of the constitutive androstane receptor (CAR) signaling pathway - cell viability counter screen (AID 1224836); further: nearly all actives have a fitted effect of over 45% in size
Details: HepG2-CYP2B6-hCAR viability, CellTiter-Fluor, 23 h, PK11195 added to every well; series mostly up to 92.4 µM
Inconclusive results are not listed. Activity calls are given as the source filed them. Calls follow the shape of the dose curve; as a rule, active = well fitted cell-killing curve with a large enough effect in the repeat runs; inconclusive = weak or mixed curves, or effect the other way; inactive = flat fitted curve, though single readings scatter.
Log the outcome using a class from y (active), n (inactive)

Data request: Could you please tell me the result logged for O=S(=O)(C(Cl)(Cl)Cl)C(Cl)(Cl)Cl in this assay?
Data returned: y

Data request: Could you please tell me the result logged for c1ccc2c(c1)Sc1ccccc1N2CC1CN2CCC1CC2 (stereo unspecified) in this assay?
Data returned: y

***
Data request: Could you please tell me the result logged for CCN(CC)C(=O)Cl in this assay?
Data returned: n

Data request: Could you please tell me the result logged for O=C(Nc1ccccc1-c1ccc(Cl)cc1)c1cccnc1Cl in this assay?
Data returned: n

Data request: Could you please tell me the result logged for CC(c1ccccc1)(c1ccc(O)cc1)c1ccc(O)cc1 in this assay?
Data returned: n

Data request: Could you please tell me the result logged for O=C(c1ccccc1)C(Cl)Cl in this assay?
Data returned: y

Data request: Could you please tell me the result logged for O=C1C(I)=CC(=C(c2cc(I)c(O)c(I)c2)c2ccccc2C(=O)O)C=C1I in this assay?
Data returned: n

====

Target: Acetylcholinesterase (Homo sapiens) (UniProt P22303)
Sequence (P22303 whole entry, looked up): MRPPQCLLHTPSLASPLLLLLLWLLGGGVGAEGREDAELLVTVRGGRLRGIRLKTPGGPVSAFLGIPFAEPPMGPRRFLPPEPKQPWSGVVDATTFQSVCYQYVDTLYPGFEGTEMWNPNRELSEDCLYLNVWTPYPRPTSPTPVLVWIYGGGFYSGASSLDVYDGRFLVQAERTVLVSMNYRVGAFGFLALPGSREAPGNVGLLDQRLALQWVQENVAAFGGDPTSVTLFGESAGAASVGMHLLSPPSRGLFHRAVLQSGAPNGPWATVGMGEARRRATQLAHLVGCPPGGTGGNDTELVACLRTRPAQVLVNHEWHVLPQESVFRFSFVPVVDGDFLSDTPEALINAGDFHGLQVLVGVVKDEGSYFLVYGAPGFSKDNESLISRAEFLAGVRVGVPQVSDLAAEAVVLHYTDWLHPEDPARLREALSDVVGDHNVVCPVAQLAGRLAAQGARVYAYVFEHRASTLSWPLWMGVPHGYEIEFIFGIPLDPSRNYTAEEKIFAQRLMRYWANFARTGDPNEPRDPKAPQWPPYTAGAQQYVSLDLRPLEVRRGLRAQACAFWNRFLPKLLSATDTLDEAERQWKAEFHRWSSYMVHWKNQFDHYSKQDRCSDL
Experiment: Acetylcholinesterase (AChE) small molecule antagonists: fluorescence cell-based qHTS assay (AID 1347398); further: nearly all actives have a fitted effect of over 50% in size
Conditions: SH-SY5Y cells; AChE activity; series mostly up to 115 µM
Results filed as inconclusive are left out. Activity calls are given as the source filed them. Calls come from the whole dose curve.
Log the outcome using a class from TRUE = active, FALSE = inactive

Answered cases to consult:
Data request: Could you please tell me the result logged for CCCCCCCC/C=C\CCCCCCCC(=O)OC(CO)CO in this assay?
Data returned: FALSE

Data request: Could you please tell me the result logged for C[n+]1ccn(CCO)c1 in this assay?
Data returned: FALSE

Data request: Could you please tell me the result logged for CCc1cccc(CC)c1 in this assay?
Data returned: FALSE

Data request: Could you please tell me the result logged for O=C(Oc1ccccc1)c1ccccc1O in this assay?
Data returned: FALSE

***
Data request: Could you please tell me the result logged for Cc1cccc(C)c1NC(=O)CN1CCCCCC1 in this assay?
Data returned: FALSE

Data request: Could you please tell me the result logged for CNS(=O)(=O)c1cc(C(=O)N2CCC(CCN3C4CCC3CC(n3c(C)nc5ccccc53)C4)(c3cccc(F)c3)CC2)c(Cl)cc1F (centres undefined) in this assay?
Data returned: TRUE

Data request: Could you please tell me the result logged for Cc1ccc(C(=O)Oc2ccc(C(O)CNC(C)(C)C)cc2OC(=O)c2ccc(C)cc2)cc1 (centres undefined) in this assay?
Data returned: FALSE

====

Biological target: Acetylcholinesterase (Homo sapiens) (UniProt P22303)
Assay: Acetylcholinesterase (AChE) small molecule antagonists: enzyme-based qHTS assay with human liver microsomes (AID 1347399); further: nearly all actives have a fitted effect of over 60% in size
Conditions: qHTS inhibition; series mostly up to 115 µM
Calls of active or inactive are those of the source. The call rests on the fitted dose curve.
QUANTITY_NAME: outcome

# example entries with known answers
Data request: Quick one: outcome of CC(=O)CC(=O)Nc1ccccc1C ?
Data returned: inactive

Data request: Quick one: outcome of CC(C)OC(C)C ?
Data returned: inactive

Data request: Quick one: outcome of CC(C)(C)CC(C)(C)c1ccc(O)c(-n2nc3ccccc3n2)c1 ?
Data returned: inactive

Data request: Quick one: outcome of Oc1ccc2ccccc2c1N=Nc1ccccc1 ?
Data returned: inactive

Data request: Quick one: outcome of ClC(Cl)=C(c1ccc(Cl)cc1)c1ccccc1Cl ?
Data returned: inactive

Data request: Quick one: outcome of CCCNCCC ?
Data returned: inactive

Data request: Quick one: outcome of O=C(CCCCCCCCC#CI)Oc1ccccc1 ?
Data returned: inactive

Data request: Quick one: outcome of Nc1nc(Cl)cc(Cl)n1 ?
Data returned: inactive

Please supply outcome for each of the following items, keeping them in order.
1. C#CCN(C)Cc1ccccc1
2. c1ccc2cc3c(ccc4ccccc43)cc2c1
3. CCCCOC(=O)c1ccc(O)cc1

Data returned:
["inactive", "inactive", "inactive"]

====

Biological target: Cytochrome P450 2C9 (Homo sapiens) (UniProt P11712)
Sequence (P11712 whole entry, looked up): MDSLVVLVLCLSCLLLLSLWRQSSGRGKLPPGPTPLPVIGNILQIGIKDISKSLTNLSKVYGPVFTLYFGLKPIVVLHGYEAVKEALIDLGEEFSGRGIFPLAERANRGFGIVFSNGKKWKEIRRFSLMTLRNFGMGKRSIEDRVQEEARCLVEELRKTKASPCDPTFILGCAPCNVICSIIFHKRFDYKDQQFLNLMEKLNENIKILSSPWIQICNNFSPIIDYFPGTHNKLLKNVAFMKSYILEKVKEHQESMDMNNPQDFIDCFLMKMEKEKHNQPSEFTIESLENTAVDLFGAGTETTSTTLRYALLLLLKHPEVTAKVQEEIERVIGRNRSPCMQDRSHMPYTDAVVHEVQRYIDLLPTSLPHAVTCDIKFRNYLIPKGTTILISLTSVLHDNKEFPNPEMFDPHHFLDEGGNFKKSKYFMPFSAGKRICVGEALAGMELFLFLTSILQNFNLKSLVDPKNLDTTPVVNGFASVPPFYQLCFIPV
Assay: Cytochrome P450 Family 2 Subfamily C Member 9 (CYP2C9) small molecule antagonists: luciferase reporter qHTS assay (AID 1671198); further: nearly all actives have a fitted effect of over 50% in size
Conditions: P450-Glo CYP2C9 enzyme assay, luciferin luminescence; series mostly up to 115 µM
Records with an inconclusive call do not appear. Calls of active or inactive are those of the source. Calls come from the whole dose curve; as a rule, active = well fitted inhibition curve with a large enough effect in the repeat runs; inconclusive = weak or mixed curves; inactive = no such curve, though single readings can be large or run the other way.
Log the outcome using a class from t for active, f for inactive

Data request: Could you please tell me the result logged for O=C(Nc1ccccc1-c1ccc(Cl)cc1)c1cccnc1Cl in this assay?
Data returned: f

====

Biological target: Acetylcholinesterase (Homo sapiens)
Experiment: Acetylcholinesterase (AChE) small molecule antagonists: enzyme-based qHTS assay with human liver microsomes (AID 1347399); further: nearly all actives have a fitted effect of over 60% in size
Conditions: qHTS inhibition; series mostly up to 115 µM
Calls of active or inactive are those of the source. The call rests on the fitted dose curve.
QUANTITY_NAME: outcome

# example entries with known answers
Data request: Quick one: outcome of CO[Si](CCCNCCN)(OC)OC ?
Data returned: inactive

Data request: Quick one: outcome of C=CC(=O)OCCOC(=O)C=C ?
Data returned: inactive

Data request: Quick one: outcome of Clc1cc(Cl)c(Cl)c(Cl)c1Cl ?
Data returned: inactive

Data request: Quick one: outcome of CCC(O)OC(O)CC (centres undefined) ?
Data returned: inactive

Data request: Quick one: outcome of Fc1ccc(C(c2ccc(F)cc2)N2CCNCC2)cc1 ?
Data returned: inactive

Data request: Quick one: outcome of CC(=O)OC/C=C(C)/C=C/C=C(C)/C=C/C1=C(C)CCCC1(C)C ?
Data returned: inactive

Data request: Quick one: outcome of CCCCC/C=C\C/C=C\CCCCCCCC(=O)O ?
Data returned: inactive

Data request: Quick one: outcome of O=Cc1ccc(Cl)c(Cl)c1 ?
Data returned: inactive

Please supply outcome for each of the following items, keeping them in order.
1. CCOCCn1c(N2CCCN(C)CC2)nc2ccccc21
2. C[C@H]1C[C@@H](O)CC(C)(C)C1
3. Fc1ccccc1-c1ccccc1

Data returned:
1. inactive
2. inactive
3. inactive
